Listed here are molecules together with their documented inhibition.
Molecular target: Histamine H1 receptor (Cavia porcellus)
Experiment: Inhibition of histamine H1 receptor in guinea pig ileum assessed as inhibition of histamine-induced muscle spasms at 2 x 10 '-3 mg/ml after 5 mins (reference value: 0.31 %)
Type: tissue-based
Express your answer in %, writing the number without its unit.

Query: inhibition; subject: `CC[C@@H](CO)N1CCC(=C2c3ccc(Cl)cc3CCc3cccnc32)CC1`
53.5

---

Biological target: Histamine H1 receptor (Cavia porcellus)
Experiment: Inhibition of histamine H1 receptor in guinea pig ileum assessed as inhibition of histamine-induced muscle spasms at 2 x 10 '-3 mg/ml after 5 mins (reference value: 0.31 %)
Assay type: tissue-based
A collection of compounds and their measured inhibition
API: value field is a number in %; no unit string.

Need inhibition of `C[C@@H](c1ccccc1)N1CCC(=C2c3ccc(Cl)cc3CCc3cccnc32)CC1` , thanks.
32.1

What about `C[C@H](CO)N1CCC(=C2c3ccc(Cl)cc3CCc3cccnc32)CC1` ?
32.4

Moving on to `C[C@@H](CO)N1CCC(=C2c3ccc(Cl)cc3CCc3cccnc32)CC1`
49.7

Next: `OCCN1CCC(=C2c3ccc(Cl)cc3CCc3cccnc32)CC1`
50.6

Source: ChEMBL document CHEMBL1806439
